# Tested on: liver function in mice
# procedure.summary: Evaluation of subacute toxicity (continuous administration, liver function)
# Type: in vivo
# Set-up: unit not given here
# conditions.used: serum; male ICR mice, 200 mg/kg intragastric once a day for 4 consecutive weeks
recorded.metric: ALP

INSERT INTO results (smiles_record, subject_of_test, number) VALUES
  ('[2H]C([2H])([2H])Oc1ccc(/C=C/c2cc(OCCCC(C)(C)C(=O)O)cc(OC([2H])([2H])[2H])c2)cc1', 'liver function in mice', 242.83),
  ('COc1ccc(/C=C/c2cc(OC)cc(OCCCC(C)(C)C(=O)O)c2)cc1', 'liver function in mice', 471.35),
  ('[2H]C([2H])([2H])Oc1cc(/C=C/c2ccc(OC)cc2)cc(OCCCC(C)(C)C(=O)O)c1', 'liver function in mice', 258.33),
  ('[2H]C([2H])([2H])Oc1ccc(/C=C/c2cc(OC)cc(OCCCC(C)(C)C(=O)O)c2)cc1', 'liver function in mice', 381.67);
